The origin of these recorded values is patent US20230263822A1.

System: blood coagulation
Assay: PT and aPTT assay in cynomolgus monkeys (Example 46)
Format: in vivo
Conditions: Day 55; platelet poor plasma; relative to PBS group
Strand notation (5' to 3'): a small letter for the sugar, then the base; units joined by * are phosphorothioate-linked, units joined directly phosphodiester-linked; [ ] holds rarer units or linkages, { } end groups; capitals alone tell only the bases. e = 2'-O-(2-methoxyethyl) (MOE); [5mC] = 5-methylcytosine; d = 2'-deoxy (DNA)
Examples of substances with documented PT ratio (INR) follow.

# substance, PT ratio (INR)
data = [
    ("ISIS 416850: MOE gapmer, nucleobases 1275 to 1318 of SEQ ID NO: 1 (Table 8) (antisense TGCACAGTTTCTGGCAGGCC; MOE gapmer, wing and gap sizes not given here)", 1.07),
    ("ISIS 449711: 3-8-3, 4-8-4, 2-10-2, 3-10-3 or 4-10-4 MOE microwalk gapmer (Table 46) (antisense eA*e[5mC]*dA*dG*dT*dT*dT*d[5mC]*dT*dG*dG*d[5mC]*eA*eG)", 1.07),
    ("ISIS 449709: 3-8-3, 4-8-4, 2-10-2, 3-10-3 or 4-10-4 MOE microwalk gapmer (Table 46) (antisense eG*e[5mC]*eA*e[5mC]*dA*dG*dT*dT*dT*d[5mC]*dT*dG*dG*d[5mC]*eA*eG*eG*e[5mC])", 1.03),
    ("ISIS 416858: MOE gapmer, nucleobases 1275 to 1318 of SEQ ID NO: 1 (Table 8) (antisense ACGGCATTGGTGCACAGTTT; MOE gapmer, wing and gap sizes not given here)", 1.01),
]

###

Test: Hematology assays in cynomolgus monkeys (Example 46)
Type: in vivo
Details: Day-14
Strand notation (5' to 3'): a small letter for the sugar, then the base; units joined by * are phosphorothioate-linked, units joined directly phosphodiester-linked; [ ] holds rarer units or linkages, { } end groups; capitals alone tell only the bases. e = 2'-O-(2-methoxyethyl) (MOE); [5mC] = 5-methylcytosine; d = 2'-deoxy (DNA)
recordedMetric: MCV (fL)

# substance, displayUnit, observedValue
records = [
    ("ISIS 416858: MOE gapmer, nucleobases 1275 to 1318 of SEQ ID NO: 1 (Table 8) (antisense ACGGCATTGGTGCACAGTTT; MOE gapmer, wing and gap sizes not given here)", "fL", 75),
    ("ISIS 416850: MOE gapmer, nucleobases 1275 to 1318 of SEQ ID NO: 1 (Table 8) (antisense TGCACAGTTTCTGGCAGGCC; MOE gapmer, wing and gap sizes not given here)", "fL", 74),
    ("ISIS 449710: 3-8-3, 4-8-4, 2-10-2, 3-10-3 or 4-10-4 MOE microwalk gapmer (Table 46) (antisense e[5mC]*eA*e[5mC]*dA*dG*dT*dT*dT*d[5mC]*dT*dG*dG*d[5mC]*eA*eG*eG)", "fL", 75),
    ("ISIS 449711: 3-8-3, 4-8-4, 2-10-2, 3-10-3 or 4-10-4 MOE microwalk gapmer (Table 46) (antisense eA*e[5mC]*dA*dG*dT*dT*dT*d[5mC]*dT*dG*dG*d[5mC]*eA*eG)", "fL", 73),
]

###

Test: Tolerability in CD1 mice: liver function (Example 43)
Format: in vivo
Settings: 50 mg/kg s.c. twice per week for 6 weeks, plasma
Strand notation (5' to 3'): a small letter for the sugar, then the base; units joined by * are phosphorothioate-linked, units joined directly phosphodiester-linked; [ ] holds rarer units or linkages, { } end groups; capitals alone tell only the bases. e = 2'-O-(2-methoxyethyl) (MOE); [5mC] = 5-methylcytosine; d = 2'-deoxy (DNA)
Examples of substances with documented Bilirubin follow.

# substance, displayUnit, Bilirubin
data = [
    ("ISIS 449710: 3-8-3, 4-8-4, 2-10-2, 3-10-3 or 4-10-4 MOE microwalk gapmer (Table 46) (antisense e[5mC]*eA*e[5mC]*dA*dG*dT*dT*dT*d[5mC]*dT*dG*dG*d[5mC]*eA*eG*eG)", "mg/dL", 0.18),
    ("ISIS 449708: 3-8-3, 4-8-4, 2-10-2, 3-10-3 or 4-10-4 MOE microwalk gapmer (Table 46) (antisense eA*e[5mC]*eA*dG*dT*dT*dT*d[5mC]*dT*dG*dG*e[5mC]*eA*eG)", "mg/dL", 0.17),
    ("ISIS 449707: 3-8-3, 4-8-4, 2-10-2, 3-10-3 or 4-10-4 MOE microwalk gapmer (Table 46) (antisense e[5mC]*eA*e[5mC]*eA*dG*dT*dT*dT*d[5mC]*dT*dG*dG*e[5mC]*eA*eG*eG)", "mg/dL", 0.19),
    ("ISIS 449709: 3-8-3, 4-8-4, 2-10-2, 3-10-3 or 4-10-4 MOE microwalk gapmer (Table 46) (antisense eG*e[5mC]*eA*e[5mC]*dA*dG*dT*dT*dT*d[5mC]*dT*dG*dG*d[5mC]*eA*eG*eG*e[5mC])", "mg/dL", 0.18),
    ("ISIS 449711: 3-8-3, 4-8-4, 2-10-2, 3-10-3 or 4-10-4 MOE microwalk gapmer (Table 46) (antisense eA*e[5mC]*dA*dG*dT*dT*dT*d[5mC]*dT*dG*dG*d[5mC]*eA*eG)", "mg/dL", 0.22),
]
